Tested target: human GIP receptor (bioGIPR) (Homo sapiens)
Construct: Biotinylate extracellular of the human GIP receptor (bioGIPR, Proteros biostructures GmbH, lot #02/2b); purchased Proteros biostructures GmbH lot #02/2b
Sequence (P48546 22-138 limits assumed): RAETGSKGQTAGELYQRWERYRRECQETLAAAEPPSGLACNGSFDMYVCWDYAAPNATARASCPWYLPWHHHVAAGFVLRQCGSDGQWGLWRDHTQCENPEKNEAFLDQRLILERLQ
Protocol summary: Surface plasmon resonance (SPR) based binding assay
Conditions: SPR, Single Cycle Kinetic mode, 25° C., 1:1 Langmuir binding model; read-out: pKD Category (converted)
*1 amine or outer side, *2 acyl side, *3 side chain or, on linkers, in order; H or OH if unused. Where a SMILES comes first, the peptide text is derived from it. Bridges are numbered along the chain shown (N, C = ends). [ ]: non-standard residue; d: D form. The star is where a group is joined. X3 = O=C(O)CN1CCN(CC(=O)O)CCN(CC(=O)NCCCOCCOCCOCCCN*)CCN(CC(=O)O)CC1; Trp(5-Cl) = N[C@@H](Cc1c[nH]c2ccc(Cl)cc12)C(=O)O; Pyridine(2,6-diCH2) = c1cc(C[*:1])nc(C[*:2])c1; X7 = c1cc(CSCCN[*:2])cc(C[*:1])c1; Hyp = O=C(O)[C@@H]1C[C@@H](O)CN1; Suc = O=C(CCC(=O)[*:2])[*:1]; Thp = NC1(C(=O)O)CCOCC1; Aib = CC(C)(N)C(=O)O
Value kind: Kd

INSERT INTO results (molecule, observed_value) VALUES
  ('CC[C@H](C)[C@@H]1NC(=O)[C@H](CC(C)C)NC(=O)C(C)(C)NC(=O)[C@@H](NC(=O)[C@@H](CC(C)C)NC(=O)[C@H](CCC(=O)O)NC(=O)[C@@H]2CCCN2C(=O)[C@H](Cc2c[nH]c3ccc(Cl)cc23)NC(=O)[C@H](Cc2c[nH]c3ccccc23)NC(=O)[C@H](CC(=O)O)NC(=O)CCC(=O)NCCCOCCOCCOCCCNC(=O)CN2CCN(CC(=O)O)CCN(CC(=O)O)CCN(CC(=O)O)CC2)CSCc2cccc(c2)CSCCNC1=O [GIP-077] ({X3-Suc}-DW[Trp(5-Cl)]PE[dL]C[Aib]LI; linker 7-C via X7)', '< 1 nM');

Kd reported for this molecule CC[C@H](C)[C@@H]1NC(=O)[C@H](CC(C)C)NC(=O)C2(CCOCC2)NC(=O)[C@@H](NC(=O)[C@@H](CC(C)C)NC(=O)[C@H](CCCNC(=N)N)NC(=O)[C@@H]2C[C@@H](O)CN2C(=O)[C@H](Cc2c[nH]c3ccc(Cl)cc23)NC(=O)[C@H](Cc2c[nH]c3ccccc23)NC(=O)[C@H](CC(=O)O)NC(C)=O)CSCc2cccc(n2)CSC[C@@H](C(N)=O)NC1=O [GIP-376] (Ac-DW[Trp(5-Cl)][Hyp]R[dL]C[Thp]LIC-NH2; linker 7-11 via Pyridine(2,6-diCH2)) : 1 to 7.94 nM

----------
Tested target: GIPR (CHO-K1-hGIPR cells) (Homo sapiens, UniProt P48546)
Construct: host or cells: CHO-K1
Sequence (P48546 22-466): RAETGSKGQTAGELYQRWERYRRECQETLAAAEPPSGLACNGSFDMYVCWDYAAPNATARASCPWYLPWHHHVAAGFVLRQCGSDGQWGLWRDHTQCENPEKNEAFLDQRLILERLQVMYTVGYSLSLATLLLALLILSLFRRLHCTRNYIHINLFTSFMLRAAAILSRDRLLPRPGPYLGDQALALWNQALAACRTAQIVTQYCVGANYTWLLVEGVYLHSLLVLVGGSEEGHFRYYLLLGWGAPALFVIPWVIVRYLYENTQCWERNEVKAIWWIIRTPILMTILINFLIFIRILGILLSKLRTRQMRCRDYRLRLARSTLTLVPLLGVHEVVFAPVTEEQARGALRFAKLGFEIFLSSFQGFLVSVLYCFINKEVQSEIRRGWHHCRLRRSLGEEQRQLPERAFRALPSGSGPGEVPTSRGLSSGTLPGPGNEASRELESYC
Protocol summary: FACS binding assay
Conditions: competition with 20 nM GIP-057, 4° C. for 1 hour, read-out: pIC50 Category (converted)
*1 amine or outer side, *2 acyl side, *3 side chain or, on linkers, in order; H or OH if unused. Where a SMILES comes first, the peptide text is derived from it. Bridges are numbered along the chain shown (N, C = ends). [ ]: non-standard residue; d: D form. The star is where a group is joined. X3 = O=C(O)CN1CCN(CC(=O)O)CCN(CC(=O)NCCCOCCOCCOCCCN*)CCN(CC(=O)O)CC1; Trp(6-F) = N[C@@H](Cc1c[nH]c2cc(F)ccc12)C(=O)O; X7 = c1cc(CSCCN[*:2])cc(C[*:1])c1; Suc = O=C(CCC(=O)[*:2])[*:1]; Aib = CC(C)(N)C(=O)O
Value kind: IC50

IC50 reported for this compound CC[C@H](C)[C@@H]1NC(=O)[C@H](CC(C)C)NC(=O)C(C)(C)NC(=O)[C@@H](NC(=O)[C@@H](CC(C)C)NC(=O)[C@H](CCC(=O)O)NC(=O)[C@@H]2CCCN2C(=O)[C@H](Cc2c[nH]c3ccccc23)NC(=O)[C@H](Cc2c[nH]c3cc(F)ccc23)NC(=O)[C@H](CC(=O)O)NC(=O)CCC(=O)NCCCOCCOCCOCCCNC(=O)CN2CCN(CC(=O)O)CCN(CC(=O)O)CCN(CC(=O)O)CC2)CSCc2cccc(c2)CSCCNC1=O [GIP-283] ({X3-Suc}-D[Trp(6-F)]WPE[dL]C[Aib]LI; linker 7-C via X7) : 100 to 794 nM

Origin of the recorded values: patent US20250296971A1
